System: Caspase-3
Test: Safety Assessment: Caspase-3 Induction
Measured Metric: Caspase-3 Induction % Induction

Problem: Name the recorded Caspase-3 Induction % Induction for `O=C1CCC2(CCN(Cc3nc4ccccc4[nH]3)CC2)Nc2ccccc21` .
Result: <10 % Induction

Problem: Would you mind telling me what Caspase-3 Induction % Induction value was observed for OC1CCC2(CCN(Cc3ccc(F)cc3)CC2)Nc2ccccc21 (racemic) ?
Result: <10 % Induction

Problem: For the molecule `O=C1CCC2(CCN(Cc3ccc(F)cc3)CC2)Nc2ccccc21` , what Caspase-3 Induction % Induction is on record?
Result: <10 % Induction

Problem: Entry under review: `O[C@@H]1CCC2(CCN(Cc3ccc(F)cc3)CC2)Nc2ccccc21` . Reported Caspase-3 Induction % Induction?
Result: <10 % Induction

Problem: Returns the measured Caspase-3 Induction % Induction for the input molecule. Input: `O[C@H]1CCC2(CCN(Cc3ccc(F)cc3)CC2)Nc2ccccc21`
Result: <10 % Induction

* * *

Biological target: CYP2D6 (Homo sapiens, UniProt P10635)
Sequence (P10635 whole entry): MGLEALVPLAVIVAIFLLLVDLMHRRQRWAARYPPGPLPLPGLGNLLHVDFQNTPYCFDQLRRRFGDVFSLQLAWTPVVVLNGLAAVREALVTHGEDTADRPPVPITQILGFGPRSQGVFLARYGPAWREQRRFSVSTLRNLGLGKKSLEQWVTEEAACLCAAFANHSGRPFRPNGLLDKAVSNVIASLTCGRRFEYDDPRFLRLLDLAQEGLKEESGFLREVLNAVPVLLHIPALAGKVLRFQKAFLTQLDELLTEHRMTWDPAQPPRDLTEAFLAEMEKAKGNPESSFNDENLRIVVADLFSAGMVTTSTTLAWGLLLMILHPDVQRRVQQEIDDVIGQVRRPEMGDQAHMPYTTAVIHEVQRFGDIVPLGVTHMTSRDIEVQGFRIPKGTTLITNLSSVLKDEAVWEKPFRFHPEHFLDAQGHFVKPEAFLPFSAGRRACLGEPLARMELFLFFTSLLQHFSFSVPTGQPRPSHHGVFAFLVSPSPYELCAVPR
Test: In Vitro Metabolism (isozymes of P450) CYP2D6
Measured Metric: CYP2D6 (% inhibition)
Please respond with the number in % inhibition and leave the unit unwritten.

Problem: CYP2D6 for `O[C@H]1CCC2(CCN(Cc3ccc(F)cc3)CC2)Nc2ccccc21` ?
Result: 44

Problem: Bench note: what CYP2D6 did `O=C1CCC2(CCN(Cc3nc4ccccc4[nH]3)CC2)Nc2ccccc21` show?
Result: 100

Problem: Endpoint output: CYP2D6 of `O=C1CCC2(CCN(Cc3ccc(F)cc3)CC2)Nc2ccccc21` . Value?
Result: 44

Problem: Quick check: CYP2D6 of `O[C@@H]1CCC2(CCN(Cc3ccc(F)cc3)CC2)Nc2ccccc21` ?
Result: 31

Problem: Need CYP2D6 of OC1CCC2(CCN(Cc3ccc(F)cc3)CC2)Nc2ccccc21 (racemic) , thanks.
Result: 102

* * *

Tested on: RedOx State
Assay: Safety Assessment: RedOx State
Assign labels as follows, please: true for RedOx State below 30 % inhibition; false for RedOx State equal to or exceeding 30 % inhibition.

Problem: I'd appreciate it if you could check whether `O=C1CCC2(CCN(Cc3nc4ccccc4[nH]3)CC2)Nc2ccccc21` has RedOx State smaller than 30 % inhibition.
Result: false

Problem: Would you kindly verify if RedOx State of `O[C@H]1CCC2(CCN(Cc3ccc(F)cc3)CC2)Nc2ccccc21` is strictly less than 30 % inhibition?
Result: true

Problem: Consider `O=C1CCC2(CCN(Cc3ccc(F)cc3)CC2)Nc2ccccc21` . Does its RedOx State lie strictly below 30 % inhibition?
Result: true

Problem: Determine whether this molecule shows RedOx State lower than 30 % inhibition (ties excluded): `O[C@@H]1CCC2(CCN(Cc3ccc(F)cc3)CC2)Nc2ccccc21`
Result: true

Problem: Below 30 % inhibition on RedOx State? Entry OC1CCC2(CCN(Cc3ccc(F)cc3)CC2)Nc2ccccc21 (racemic)
Result: true

* * *

Molecular target: UniProt:Q99720
Sequence (Q99720 whole entry): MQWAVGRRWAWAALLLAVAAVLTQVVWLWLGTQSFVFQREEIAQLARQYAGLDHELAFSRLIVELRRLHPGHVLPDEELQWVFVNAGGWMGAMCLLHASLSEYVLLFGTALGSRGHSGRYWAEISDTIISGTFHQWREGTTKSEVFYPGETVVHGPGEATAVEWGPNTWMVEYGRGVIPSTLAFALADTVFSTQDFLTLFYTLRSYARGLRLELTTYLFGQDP
Assay: Human sigma receptor assay
Format: binding
Settings: read-out: IC50 Against Human Sigma Receptor
pIC50: −log10 of the molar value.
Measured Metric: pIC50

Problem: Query: pIC50; subject: `Fc1ccc(CN2CCC3(CCCc4ccccc4N3)CC2)cc1`
Result: > 6.00

Problem: Can you look up the measured pIC50 of `O[C@H]1CCC2(CCN(Cc3ccc(F)cc3)CC2)Nc2ccccc21` for me?
Result: > 7.00

Problem: Entry OC1CCC2(CCN(Cc3ccc(F)cc3)CC2)Nc2ccccc21 (racemic) : reported pIC50 = ?
Result: > 7.00

Problem: # get_value(readout='pIC50', item= O=C1CCC2(CCN(CC(O)c3ccccc3)CC2)Nc2ccccc21 (stereo not drawn) )
Result: > 7.00

Problem: Which pIC50 is reported for this molecule? CC(=O)NC1CCC2(CCN(Cc3ccc(F)cc3)CC2)Nc2ccccc21 (racemic)
Result: > 6.00

Problem: # query: pIC50 of entry `O[C@@H]1CCC2(CCN(Cc3ccc(F)cc3)CC2)Nc2ccccc21`
Result: > 6.00

Problem: Can you look up the measured pIC50 of NC1CCC2(CCN(Cc3ccc(F)cc3)CC2)Nc2ccccc21 (racemic) for me?
Result: > 7.00

Problem: I am curious: what pIC50 value has been reported for CC(c1ccc(F)cc1)N1CCC2(CCC(=O)c3ccccc3N2)CC1 (stereo not drawn) ?
Result: > 7.00

Problem: Return reported pIC50; argument: `O=C1CCC2(CCN(Cc3ccc(F)cc3)CC2)Nc2ccccc21`
Result: > 7.00

* * *

Assay: Pharmacokinetics in a single rat
Format: in vivo
Settings: brain, iv; rat, 4 mg/kg i.v., 4 h post dose; read-out: Brain Tissue Distribution (4 h post dose, ng/g tissue)
Measured Metric: concentration at 4 h (ng/g)
Supply the numeric figure in ng/g, leaving out any unit text.

Problem: Could you tell me which concentration at 4 h is on file for O=C1CCC2(CCN(Cc3ccc(F)cc3)CC2)Nc2ccccc21 [Compound 31] ?
Result: 70

* * *

Target: UniProt:P33261
Sequence (P33261 whole entry): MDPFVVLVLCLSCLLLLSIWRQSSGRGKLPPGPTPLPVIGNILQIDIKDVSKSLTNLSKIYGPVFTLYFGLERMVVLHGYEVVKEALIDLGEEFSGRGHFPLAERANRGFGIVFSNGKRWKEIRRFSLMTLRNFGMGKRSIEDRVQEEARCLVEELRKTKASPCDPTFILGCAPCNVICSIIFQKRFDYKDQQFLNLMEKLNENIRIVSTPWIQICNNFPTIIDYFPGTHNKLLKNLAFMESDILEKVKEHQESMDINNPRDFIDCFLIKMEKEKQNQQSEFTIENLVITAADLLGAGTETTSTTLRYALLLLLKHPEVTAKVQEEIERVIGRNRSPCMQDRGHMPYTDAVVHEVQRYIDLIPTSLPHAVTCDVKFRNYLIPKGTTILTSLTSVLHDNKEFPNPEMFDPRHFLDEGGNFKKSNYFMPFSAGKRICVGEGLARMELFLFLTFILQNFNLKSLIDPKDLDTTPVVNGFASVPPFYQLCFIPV
Assay: In Vitro Metabolism (isozymes of P450) CYP2C19
Measured Metric: CYP2C19
Reply with a number, then the unit it belongs to.

Problem: Entry O=C1CCC2(CCN(Cc3nc4ccccc4[nH]3)CC2)Nc2ccccc21 [Compound 21] , system UniProt:P33261: what CYP2C19 was measured?
Result: 20 % inhibition

Problem: Which measured CYP2C19 belongs to O[C@H]1CCC2(CCN(Cc3ccc(F)cc3)CC2)Nc2ccccc21 [Compound 49] , tested on UniProt:P33261?
Result: 19 % inhibition

Problem: Request - read-out CYP2C19 | tested on UniProt:P33261 | compound OC1CCC2(CCN(Cc3ccc(F)cc3)CC2)Nc2ccccc21 (racemic) [Compound 32]
Result: 42 % inhibition

Problem: Request - read-out CYP2C19 | tested on UniProt:P33261 | compound O[C@@H]1CCC2(CCN(Cc3ccc(F)cc3)CC2)Nc2ccccc21 [Compound 50]
Result: 19 % inhibition

Problem: UniProt:P33261 / CYP2C19 / O=C1CCC2(CCN(Cc3ccc(F)cc3)CC2)Nc2ccccc21 [Compound 31] : value?
Result: 28 % inhibition

* * *

Test: Pharmacokinetics in a single rat
Format: in vivo
Conditions: plasma, iv; rat, 4 mg/kg i.v., Peg400:Dextrose (2:3 v/v); read-out: AUC0-4h
Measured Metric: AUC(0-t)
Include the unit after the number when you answer.

Problem: Returns the measured AUC(0-t) for the input compound. Input: `O=C1CCC2(CCN(Cc3ccc(F)cc3)CC2)Nc2ccccc21`
Result: 1480 ng·h/mL

* * *

Target: CYP3A4 (Homo sapiens)
Sequence (P08684 whole entry): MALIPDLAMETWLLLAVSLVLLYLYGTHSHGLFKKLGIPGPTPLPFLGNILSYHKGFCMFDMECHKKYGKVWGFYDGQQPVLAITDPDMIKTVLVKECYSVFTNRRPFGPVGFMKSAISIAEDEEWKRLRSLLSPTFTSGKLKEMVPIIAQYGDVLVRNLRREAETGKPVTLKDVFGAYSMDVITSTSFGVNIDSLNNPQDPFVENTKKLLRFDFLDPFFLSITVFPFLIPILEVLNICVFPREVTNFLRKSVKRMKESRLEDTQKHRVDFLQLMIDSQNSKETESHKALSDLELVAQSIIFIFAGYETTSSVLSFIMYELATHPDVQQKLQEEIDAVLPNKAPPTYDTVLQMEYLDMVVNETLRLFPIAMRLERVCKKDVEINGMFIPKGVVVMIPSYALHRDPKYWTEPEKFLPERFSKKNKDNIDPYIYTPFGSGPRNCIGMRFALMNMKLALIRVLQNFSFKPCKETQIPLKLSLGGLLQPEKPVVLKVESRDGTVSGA
Assay: In Vitro Metabolism (isozymes of P450) CYP3A4
Measured Metric: CYP3A4 (% inhibition)
Provide the reading as a plain figure in % inhibition.

Problem: Quick one: CYP3A4 of O=C1CCC2(CCN(Cc3nc4ccccc4[nH]3)CC2)Nc2ccccc21 [Compound 21] ?
Result: 69

Problem: Could you tell me which CYP3A4 is on file for OC1CCC2(CCN(Cc3ccc(F)cc3)CC2)Nc2ccccc21 (racemic) [Compound 32] ?
Result: 67

Problem: Any idea what CYP3A4 was measured for O=C1CCC2(CCN(Cc3ccc(F)cc3)CC2)Nc2ccccc21 [Compound 31] ?
Result: 22

Problem: Endpoint output: CYP3A4 of O[C@H]1CCC2(CCN(Cc3ccc(F)cc3)CC2)Nc2ccccc21 [Compound 49] . Value?
Result: 17

Problem: Find the recorded CYP3A4 belonging to O[C@@H]1CCC2(CCN(Cc3ccc(F)cc3)CC2)Nc2ccccc21 [Compound 50] and report it.
Result: 19

* * *

Record form. Attribute: CYP1A2. Fill in for each entry.
Target: CYP1A2 (Homo sapiens, UniProt P05177)
Sequence (P05177 1-516): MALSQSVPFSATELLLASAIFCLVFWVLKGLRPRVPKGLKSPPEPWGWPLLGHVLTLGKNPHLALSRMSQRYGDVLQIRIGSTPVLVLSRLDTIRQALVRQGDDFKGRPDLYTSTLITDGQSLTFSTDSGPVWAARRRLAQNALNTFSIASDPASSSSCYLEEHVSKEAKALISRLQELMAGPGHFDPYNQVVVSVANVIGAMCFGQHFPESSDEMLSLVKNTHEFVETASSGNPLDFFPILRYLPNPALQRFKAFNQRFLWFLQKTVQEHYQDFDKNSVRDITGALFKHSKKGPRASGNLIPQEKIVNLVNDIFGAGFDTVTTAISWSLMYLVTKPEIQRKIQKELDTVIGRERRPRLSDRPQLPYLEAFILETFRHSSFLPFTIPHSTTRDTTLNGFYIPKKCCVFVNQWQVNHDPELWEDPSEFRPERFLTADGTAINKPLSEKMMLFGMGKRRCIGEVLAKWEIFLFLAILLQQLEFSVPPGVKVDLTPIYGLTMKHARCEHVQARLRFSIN
Assay: In Vitro Metabolism (isozymes of P450) CYP1A2

Problem: Item `O[C@@H]1CCC2(CCN(Cc3ccc(F)cc3)CC2)Nc2ccccc21` has what recorded CYP1A2?
Result: 14 % inhibition

Problem: Item OC1CCC2(CCN(Cc3ccc(F)cc3)CC2)Nc2ccccc21 (racemic) has what recorded CYP1A2?
Result: 20 % inhibition

Problem: Value lookup for CYP1A2; key = `O[C@H]1CCC2(CCN(Cc3ccc(F)cc3)CC2)Nc2ccccc21`
Result: 13 % inhibition

Problem: Recorded CYP1A2 for `O=C1CCC2(CCNCC2)Nc2ccccc21` , please?
Result: <10 % inhibition

Problem: Could you tell me which CYP1A2 is on file for `O=C1CCC2(CCN(Cc3ccc(F)cc3)CC2)Nc2ccccc21` ?
Result: <10 % inhibition
